Ref: PubChem BioAssay AID1337

assayed_system: Ras-related protein Rab-2A (Canis lupus familiaris)
measurement_description: Rab2 wildtype GTP-binding inhibitors, dose response, biochemical, GST-Rab2 beads, Bodipy-FL-GTP, flow cytometry, multiplex (AID 1337)
reported_conditions: Bead-bound GST-Rab2 wt
pEC50: −log10 of the molar value.
quantity_measured: pEC50

O=[N+]([O-])c1cc2oc3c(c2c(C=NCc2ccccc2)c1O)CCCC3 : 5.40

[A] OC(CNCCC1C=Nc2ccccc21)Cn1c2ccc(Cl)cc2c2cc(Cl)ccc21 (stereo not drawn)
[B] COC(=O)c1c(N2C(=O)[C@H]3[C@@H](C2=O)[C@]2(C(=O)Nc4c(C)cc(C)cc42)N2CCC[C@@H]32)sc(C)c1C
IN: Lab note: record which item had the higher pEC50, A or B . # respond with the chosen item's label
OUT: B
